target: MMP-13 (Homo sapiens, UniProt P45452); construct: 10 μL of a 50 nM stock solution of catalytic domain of MMP-13 enzyme; purchased Invitek (Berlin) 30100812; assay: Assay for Determining MMP-13 Inhibition; type: biochemical; details: catalytic domain of MMP-13, fluorescent substrate
quantity: IC50

Enquiry: Give recorded IC50 with MMP-13 (Homo sapiens, UniProt P45452) for the following compound: Nc1c(N2CCc3ccc(CNC(=O)c4nc(O)nc5ccccc45)cc3C2)c(=O)c1=O [Example 1]
Return: < 500 nM
